TR-FRET signal reference
- tested target: MAGE-A11:PCF11 (Homo sapiens (Human))
- protocol: TR-FRET single point screening at 15 μM
- Assay type: binding
- Set-up: unit not given here
- setup conditions: single point TR-FRET screening of quinoline compounds against MAGE-A11:PCF11; 15 μM
metric: TR-FRET signal

INSERT INTO assay_data (compound, measured_result) VALUES
  ('Cc1c(CNCCCNc2ccnc3cc(Cl)ccc23)c(=O)n(-c2ccccc2)n1C', 5.584),
  ('CCCN(CCCNc1ccnc2cc(Cl)ccc12)CCC(C)(C)C', 12.11),
  ('Clc1ccc2c(NCCCNCc3ccco3)ccnc2c1', 6.349),
  ('Clc1ccc2c(NCCCN(Cc3ccccc3)Cc3cccnc3Br)ccnc2c1', 9.715),
  ('CCCN(CCCNc1ccnc2cc(C(F)(F)F)ccc12)Cc1ccc(OC(F)(F)F)cc1', 17.38),
  ('CCCN(CCCNc1ccnc2cc(C(F)(F)F)ccc12)Cc1ccncc1', 17.49),
  ('CCCN(CCCNc1ccnc2cc(Cl)ccc12)Cc1c(F)cccc1OC', 19.4),
  ('CCCN(CCCNc1c2ccc(Cl)cc2nc2ccc(OC)cc12)Cc1ccc(-c2ccccc2)cc1', '−74.01'),
  ('CN(C)CCCNc1c2ccccc2nc2ccccc12', 16.77),
  ('CCCN(CCCNc1c2ccc(Cl)cc2nc2ccc(OC)cc12)Cc1sccc1C', '−83.81'),
  ('CCCCCCNCCCNc1ccnc2cc(Cl)ccc12', 22.25),
  ('CCCN(CCCNc1ccnc2cc(Cl)ccc12)Cc1cc(F)ccc1OC', 17.08),
  ('Clc1ccc2c(NCCCN(Cc3ccccc3)Cc3ccc4c(c3)OCO4)ccnc2c1', 9.001),
  ('CCCN(CCCNc1ccnc2cc(Cl)ccc12)Cc1nc(C)cs1', 3.413),
  ('CCCN(CCCNc1c2ccc(Cl)cc2nc2ccc(OC)cc12)Cc1cccc(F)c1', '−90.13'),
  ('CC(CCNCCCNc1ccnc2cc(Cl)ccc12)c1ccccc1 (centres unmarked)', 19.01),
  ('O=[N+]([O-])c1ccc(CN(CCCNc2ccnc3cc(Cl)ccc23)Cc2ccccc2)cc1', 20.2),
  ('Cc1ccc(C)c(CN(CCCNc2ccnc3cc(Cl)ccc23)Cc2ccccc2)c1', 20.22),
  ('CCCN(CCCNc1ccnc2cc(Cl)ccc12)Cc1sccc1C', 19.73),
  ('c1ccc(-c2ccc3c(NCCCNCc4ccco4)ccnc3c2)cc1', 28.69),
  ('CCCN(CCCNc1ccnc2cc(C(F)(F)F)ccc12)CC1CCCCC1', 33.31),
  ('Clc1ccc2c(NCCCNCc3ccsc3)ccnc2c1', 15.25),
  ('c1coc(CNCCCNc2ccnc3cc(-c4cccc5ccccc45)ccc23)c1', 41.57),
  ('CCC(CC)CN(CCCNc1ccnc2cc(Cl)ccc12)Cc1ccccc1', 22.91),
  ('Clc1ccc2c(NCCCNCc3nccs3)ccnc2c1', 4.988),
  ('CCCN(CCCNc1ccnc2cc(Cl)ccc12)Cc1cc2ccccc2nc1Cl', 12.8),
  ('CCOC(=O)c1cnc2c(C)cccc2c1NCCCN1CCOCC1', 3.353),
  ('CCCN(CCCNc1ccnc2cc(C(F)(F)F)ccc12)Cc1cccc(C)c1', 20.17),
  ('CCCN(CCCNc1ccnc2cc(C(F)(F)F)ccc12)Cc1ccc(Cl)c(C(F)(F)F)c1', 11.04),
  ('CCCN(CCCNc1ccnc2cc(C(F)(F)F)ccc12)Cc1ccco1', 24.11),
  ('CCOC(=O)c1cnc2c(Cl)cc(Cl)cc2c1NCCCN1CCOCC1', '−2.118'),
  ('Oc1ccccc1CN(CCCNc1ccnc2cc(Cl)ccc12)Cc1ccccc1', 19.27),
  ('CCCCNCCCNc1ccnc2cc(C(F)(F)F)ccc12', 18.54),
  ('FC(F)(F)c1ccc2c(NCCCNCc3ccc[nH]3)ccnc2c1', 41.69),
  ('CCCN(CCCNc1ccnc2cc(Cl)ccc12)Cc1nccs1', 11.96),
  ('CC(C)(C)CCNCCCNc1ccnc2cc(Cl)ccc12', 9.225),
  ('CCCCNCCCNc1ccnc2cc(Cl)ccc12', 8.454),
  ('CCCN(CCCNc1ccnc2cc(C(F)(F)F)ccc12)Cc1ccc(CC)cc1', 31.77);

---

- tested target: interaction between GST-MAGEA11 MHD and FAM-PCF11_4 peptide (MAGE-A11:PCF11) (Homo sapiens (Human), UniProt P43364)
- Sequence (P43364 218-429): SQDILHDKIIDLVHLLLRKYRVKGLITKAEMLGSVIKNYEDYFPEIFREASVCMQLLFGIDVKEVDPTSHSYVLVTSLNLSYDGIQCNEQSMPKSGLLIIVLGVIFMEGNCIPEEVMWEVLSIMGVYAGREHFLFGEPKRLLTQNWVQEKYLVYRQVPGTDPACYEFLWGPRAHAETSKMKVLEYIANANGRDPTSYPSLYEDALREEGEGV
- protocol: TR-FRET dose response competition assay for disruption of MAGE-A11:PCF11 binding
- setup conditions: Table 8, representative compounds; read-out: TR-FRET IC50
- Description: TR-FRET Assays and High-throughput Screen. Terbium-anti-GST antibody, 1 M Tris pH 7.5 1 M MgCl2 and 1 M DTT were purchased from Invitrogen (Carlsbad, CA), BSA was purchased from Sigma (St. Louis, MO). Dimethyl sulfoxide (DMSO) was purchased from Fisher Scientific (Pittsburgh, PA). Black 384-well low volume plates and 384-well polypropylene compound plates were purchased from Corning Incorporated (Tewksbury, MA). […]
log10 IC50 reference
metric: log10 IC50 (log10 of the value in µM)

INSERT INTO measurements (molecule, metric, measured_result) VALUES
  ('COC(=O)c1ccc(CNCCCNc2ccnc3cc(Cl)ccc23)cc1 [SJ000523067]', 'log10 IC50', 1.84),
  ('FC(F)(F)c1ccccc1CNCCCNc1ccnc2cc(Cl)ccc12 [SJ000520908]', 'log10 IC50', 1.84),
  ('Clc1cccc(Cl)c1Cc1ccc2c(NCCCNCc3cccc4c3OCO4)ccnc2c1 [SJ000311316]', 'log10 IC50', 1.04),
  ('COc1cccc(CNCCCNc2ccnc3cc(-c4cc(C(F)(F)F)cc(C(F)(F)F)c4)ccc23)c1O [SJ000311271]', 'log10 IC50', 1.84),
  ('Oc1ccc(Br)c(CNCCCNc2ccnc3cc(Cl)ccc23)c1 [SJ000311194]', 'log10 IC50', 1.84),
  ('COc1ccc(F)cc1CNCCCNc1ccnc2cc(Cl)ccc12 [SJ000000500]', 'log10 IC50', 1.84),
  ('COc1ccc(C(F)(F)F)cc1CNCCCNc1ccnc2cc(Cl)ccc12 [SJ000521036]', 'log10 IC50', 1.84),
  ('COc1ccc(F)cc1CNCCCNc1ccnc2cc(Oc3ccc(Cl)cc3)ccc12 [SJ000311229]', 'log10 IC50', 1.29),
  ('c1cc(CNCCCNc2ccnc3cc(C4CCCCC4)ccc23)c2c(c1)OCO2 [SJ000311264]', 'log10 IC50', 1.37),
  ('Clc1ccc2c(NCCCNCc3ccc4c(c3)OCO4)ccnc2c1 [SJ000523056]', 'log10 IC50', 1.84),
  ('c1cc(CNCCCNc2ccnc3cc(-c4cccc5ccccc45)ccc23)c2c(c1)OCO2 [SJ000311276]', 'log10 IC50', 1.49),
  ('Fc1cccc(C(F)(F)F)c1CNCCCNc1ccnc2cc(Cl)ccc12 [SJ000521031]', 'log10 IC50', 1.84),
  ('COc1cc(Cc2ccc3c(NCCCNCc4cc(F)ccc4OC)ccnc3c2)cc(OC)c1 [SJ000311313]', 'log10 IC50', 1.53),
  ('COc1cccc(CNCCCNc2ccnc3cc(-c4ccccc4)ccc23)c1O [SJ000311283]', 'log10 IC50', 1.38),
  ('Fc1ccc(Oc2ccc3c(NCCCNCc4cccc5c4OCO5)ccnc3c2)cc1 [SJ000311224]', 'log10 IC50', 1.78),
  ('Fc1c(F)c(F)c(CNCCCNC2CCNC3(Cl)CCC23)c(F)c1F (stereo not drawn) [SJ000520910]', 'log10 IC50', 1.84),
  ('COc1ccc(F)c(CNCCCNc2ccnc3cc(C(F)(F)F)ccc23)c1 [SJ000521058]', 'log10 IC50', 1.84),
  ('COc1cccc(CNCCCNc2ccnc3cc(Oc4ccc(C(C)(C)C)cc4)ccc23)c1O [SJ000311235]', 'log10 IC50', 0.88),
  ('Fc1cccc(CNCCCNc2ccnc3cc(C(F)(F)F)ccc23)c1 [SJ000521066]', 'log10 IC50', 1.84),
  ('COc1ccccc1Oc1ccc2c(NCCCNCc3cccc4c3OCO4)ccnc2c1 [SJ000311212]', 'log10 IC50', 1.84),
  ('COc1ccc(F)cc1CNCCCNc1ccnc2cc(Oc3cccc(N(C)C)c3)ccc12 [SJ000311233]', 'log10 IC50', 0.75),
  ('N#Cc1ccc(Cc2ccc3c(NCCCNCc4cccc5c4OCO5)ccnc3c2)cc1 [SJ000311304]', 'log10 IC50', 1.82),
  ('Fc1ccc(-c2ccc3c(NCCCNCc4cccc5c4OCO5)ccnc3c2)cc1 [SJ000311240]', 'log10 IC50', 1.40),
  ('CC(C)Cc1ccc2c(NCCCNCc3cccc4c3OCO4)ccnc2c1 [SJ000311260]', 'log10 IC50', 1.84),
  ('COc1ccc(F)cc1CNCCCNc1ccnc2cc(C(F)(F)F)ccc12 [SJ000521052]', 'log10 IC50', 1.84),
  ('COc1cccc(CNCCCNc2ccnc3cc(C4=CC=CC5=CC=CC=CC54)ccc23)c1O (stereo not drawn) [SJ000311275]', 'log10 IC50', 1.20),
  ('COc1ccc(F)cc1CNCCCNc1ccnc2cc(Cc3cc(C)cc(C)c3)ccc12 [SJ000311321]', 'log10 IC50', 0.96),
  ('Oc1ccc(Br)cc1CNCCCNc1ccnc2cc(Cl)ccc12 [SJ000311186]', 'log10 IC50', 1.84),
  ('COc1cccc(Oc2ccc3c(NCCCNCc4cc(F)ccc4OC)ccnc3c2)c1 [SJ000311217]', 'log10 IC50', 1.57),
  ('FC(F)(F)Oc1cccc(CNCCCNc2ccnc3cc(Cl)ccc23)c1 [SJ000521022]', 'log10 IC50', 1.84),
  ('COc1cccc(CNCCCNc2ccnc3cc(-c4ccc(C(C)(C)C)cc4)ccc23)c1O [SJ000311287]', 'log10 IC50', 0.67),
  ('COc1cc(Cc2ccc3c(NCCCNCc4cccc(OC)c4O)ccnc3c2)cc(OC)c1 [SJ000311311]', 'log10 IC50', 1.53),
  ('Fc1cccc(C(F)(F)F)c1CNCCCNc1ccnc2cc(C(F)(F)F)ccc12 [SJ000521059]', 'log10 IC50', 1.84),
  ('COc1cccc(CNCCCNc2ccnc3cc(CCC(C)C)ccc23)c1O [SJ000311247]', 'log10 IC50', 1.84);
